Numbers sourced from patent US20100022542A1.

- Test target: human TPO receptor (hTPOR) (Homo sapiens, UniProt P40238)
- Sequence (P40238 26-635): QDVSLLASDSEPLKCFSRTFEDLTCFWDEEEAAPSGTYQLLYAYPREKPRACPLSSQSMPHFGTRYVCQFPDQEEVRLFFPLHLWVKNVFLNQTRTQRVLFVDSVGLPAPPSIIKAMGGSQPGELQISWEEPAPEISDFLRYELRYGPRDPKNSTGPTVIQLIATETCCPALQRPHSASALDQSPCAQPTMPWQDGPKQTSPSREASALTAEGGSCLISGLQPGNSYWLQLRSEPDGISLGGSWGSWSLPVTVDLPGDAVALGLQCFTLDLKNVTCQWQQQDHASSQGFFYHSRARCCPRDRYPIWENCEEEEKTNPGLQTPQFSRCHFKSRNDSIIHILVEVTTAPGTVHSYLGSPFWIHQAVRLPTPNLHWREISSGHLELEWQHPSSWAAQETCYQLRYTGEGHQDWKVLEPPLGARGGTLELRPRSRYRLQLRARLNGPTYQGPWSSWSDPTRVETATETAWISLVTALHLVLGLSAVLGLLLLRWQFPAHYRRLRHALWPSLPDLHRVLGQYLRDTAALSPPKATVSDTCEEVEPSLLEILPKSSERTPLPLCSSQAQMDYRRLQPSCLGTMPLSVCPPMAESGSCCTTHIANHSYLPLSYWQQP
- Procedure details: Proliferation of TPO dependent BaF/hTPOR cells, WST-1, thrombopoietic activity ED50 (Test Example 3)
- Run parameters: 20 h incubation then WST-1 4 h, absorbance at 450 nm
Endpoint name: EC50 (nM)

[
  {
    "Molecule": "O=C(Nc1nc(-c2ccc(Cl)c(Cl)c2)cs1)c1ccc(CC(Cl)C(=O)O)cc1 (stereo not shown)",
    "Recorded number": 240
  },
  {
    "Molecule": "O=C(O)/C(Cl)=C/c1ccc(C(=O)Nc2nc(-c3ccc(C(F)(F)F)cc3F)cs2)cc1",
    "Recorded number": 23
  },
  {
    "Molecule": "C/C(=C\\c1ccc(C(=O)Nc2nc(-c3ccc(Cl)c(Cl)c3)cs2)cc1)C(=O)NCCN(C)C",
    "Recorded number": 707
  },
  {
    "Molecule": "CC(=Cc1ccc(C(=O)Nc2nc(-c3ccc(Cl)c(Cl)c3)cs2)cc1)S(=O)(=O)N(C)C",
    "Recorded number": 174
  }
]
